Field: SPA pIC50. Provide a value for each of the binders that follow.
Target: T1, IL-5RaECD (the extracellular domain (ECD) of the human IL-5 receptor a chain) (human, UniProt Q01344 21-342, extensively glycosylated)
T1 construct: extracellular domain; also called IL-5RαECD; soluble IL-5Ra
T1 sequence (Q01344 21-342, looked up): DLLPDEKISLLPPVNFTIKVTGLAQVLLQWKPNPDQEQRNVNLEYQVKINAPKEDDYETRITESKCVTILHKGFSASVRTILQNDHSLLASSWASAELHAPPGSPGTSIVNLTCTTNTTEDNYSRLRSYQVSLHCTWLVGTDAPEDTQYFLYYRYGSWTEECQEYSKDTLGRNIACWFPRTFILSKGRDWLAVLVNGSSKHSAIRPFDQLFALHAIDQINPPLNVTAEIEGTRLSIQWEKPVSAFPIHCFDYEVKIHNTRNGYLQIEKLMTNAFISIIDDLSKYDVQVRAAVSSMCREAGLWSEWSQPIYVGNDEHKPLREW
Experiment: scintillation proximity competition assay, 20 pM [125I] IL-5, soluble IL-5Ra on beads; dimer of the printed monomer

Examples from the recorded data:
binder	SPA pIC50
H-EGYVCVEFARCPTCR-NH2 (disulfide (positions not given here); also: dimer, intramolecular and intermolecular disulfides, places not given here) [dimer of (H)-EGYVCVEFARCPTCR-(NH2)]	6.4 negative log of the molar IC50
H-GYVCVEWARCPTCR-OH (disulfide (positions not given here); also: dimer, intramolecular and intermolecular disulfide linkages, places not given here) [dimer of (H)-GYVCVEWARCPTCR-(OH)]	8.2 negative log of the molar IC50
H-EGYVCVEFARCPTCG-NH2 (disulfide (positions not given here); also: dimer, intramolecular and intermolecular disulfides, places not given here) [dimer of (H)-EGYVCVEFARCPTCG-(NH2)]	6.6 negative log of the molar IC50

Can you share its SPA pIC50? I mean this binder: H-EGYVCVEWARCPTCR-OH (disulfide (positions not given here); also: dimer, intramolecular and intermolecular disulfide linkages, places not given here) [dimer of (H)-EGYVCVEWARCPTCR-(OH)]
8.4 negative log of the molar IC50

Numbers sourced from patent US20070173444A1.
